TARGET SYSTEM: Human CD137 ECD (human)
Sequence (chain, as listed by the source limits assumed): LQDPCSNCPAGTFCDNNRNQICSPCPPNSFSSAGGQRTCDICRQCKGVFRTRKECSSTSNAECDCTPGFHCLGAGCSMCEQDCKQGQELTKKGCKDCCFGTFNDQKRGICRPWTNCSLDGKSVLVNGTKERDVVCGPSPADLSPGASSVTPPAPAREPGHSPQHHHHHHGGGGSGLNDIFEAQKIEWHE
PROTOCOL: single mutant vs template dBBDu183H
PROPERTY: fold change of affinity (fold)
Response body: numeric value in fold, unit text excluded.

Consider the worked cases shown below.
BINDER	fold change of affinity [fold]
H183/L072 VH F29K (antibody, name in Kabat numbering, V domains shown) VH: QVQLVESGGGLVQPGRSLRLSCAASGFTKSNAWMHWVRQAPGKGLEWVAQIKDKGNAYAAYYAPSVKGRFTISRDDSKNSIYLQMNSLKTEDTAVYYCHYVHYASASTVLPAFGVDAWGQGTTVTVSS VL: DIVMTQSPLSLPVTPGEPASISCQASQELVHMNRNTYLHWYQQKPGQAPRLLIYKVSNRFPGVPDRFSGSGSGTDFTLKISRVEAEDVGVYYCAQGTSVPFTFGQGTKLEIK	0
H183/L072 VH A57W (antibody, name in Kabat numbering, V domains shown) VH: QVQLVESGGGLVQPGRSLRLSCAASGFTFSNAWMHWVRQAPGKGLEWVAQIKDKGNAYAWYYAPSVKGRFTISRDDSKNSIYLQMNSLKTEDTAVYYCHYVHYASASTVLPAFGVDAWGQGTTVTVSS VL: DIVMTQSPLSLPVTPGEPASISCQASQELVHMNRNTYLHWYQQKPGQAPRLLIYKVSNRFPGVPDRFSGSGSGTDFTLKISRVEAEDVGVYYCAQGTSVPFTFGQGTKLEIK	0

Consider now this further binder.
**Q:** Dear colleague, please send me the reported fold change of affinity for H183/L072 VH D52aL (antibody, name in Kabat numbering, V domains shown) VH: QVQLVESGGGLVQPGRSLRLSCAASGFTFSNAWMHWVRQAPGKGLEWVAQIKLKGNAYAAYYAPSVKGRFTISRDDSKNSIYLQMNSLKTEDTAVYYCHYVHYASASTVLPAFGVDAWGQGTTVTVSS VL: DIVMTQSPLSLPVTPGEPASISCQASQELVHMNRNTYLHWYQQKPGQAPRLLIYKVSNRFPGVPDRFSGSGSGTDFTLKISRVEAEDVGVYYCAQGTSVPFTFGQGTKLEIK when you can.
**A:** 0
